test: NCI Yeast Anticancer Drug Screen. Data for the rad50 strain (AID 155);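 further: 0% = growth of vehicle-only cultures of the same strain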; conditions: S. cerevisiae rad50 strain growth inhibition, hits give high values; at 50.0 µM unless noted
The panel holds about 79,000 compounds, 15% with a hit somewhere; the sample as a whole holds those more often.
Catalogue of compounds with associated growth inhibition

# compound, u, growth inhibition
records = [
    ("C=CC(C)(C)c1c(OC)cc(-c2ccccc2)oc1=O", "%", -7.65),
    ("COc1ccccc1C(O)C(C)C (stereo not given)", "%", -17.6),
    ("O=C(O)c1c(O)cc(=O)oc1-c1ccc(Cl)cc1", "%", 10.8),
    ("COc1ccc(-c2cccc(C(=O)O)c2C(=O)O)cc1OC", "%", 6.1),
    ("CC(=O)CCCCC(=O)Nc1ccc(CC(NC(=O)OC(C)(C)C)C(=O)NCC(=O)OCc2ccccc2)cc1 (stereo not given)", "%", -38.5),
    ("CN(C)C(=S)S(=O)(=O)c1ccccc1", "%", 51.5),
    ("O=C(O)CNC(=O)CNC(=O)CNC(=O)C(CSC(c1ccccc1)(c1ccccc1)c1ccccc1)NC(=O)OCc1ccccc1 (stereo not given)", "%", 20.4),
    ("O=C(CCCCCCCC(=O)NO)NO", "%", -10.8),
    ("CC(C)(C)NC(=O)CCCl", "%", 16.4),
    ("C#CC(O)C1OC(C)(C)OC1C1COC(C)(C)O1 (stereo not given)", "%", 4.15),
    ("O=C(Nc1ccc(C(=O)O)cc1)Nc1cccc(Cl)c1", "%", -6.15),
    ("Fc1cccc2c(SCc3ccc(Cl)cc3Cl)cnnc12", "%", -0.9),
    ("COc1cc(CCC(NC(C)=O)c2cccc(O)c(=O)c2)cc(OC)c1OC (stereo not given)", "%", -10.2),
    ("O=C1OC(OC2CCCCC2)(c2ccccc2)c2ccccc21 (stereo not given)", "%", -25.1),
    ("NC(=O)CC[n+]1ccccc1", "%", 11.1),
    ("CC(=O)CC(=O)Nc1ccc2ccccc2c1", "%", -1.9),
    ("CSc1ccc(C2NC(=O)NC2=O)cc1 (stereo not given)", "%", -10.2),
    ("c1ccc2nc3c(cc2c1)c1c(c2ccccc23)CCCC1", "%", 11.2),
    ("CC(C)(CBr)CC(=O)NC1CCCCC1", "%", -22),
    ("CC(C)(C)C(C)(C)SSC(C)(C)C(C)(C)C", "%", 6.05),
    ("FC(F)(F)c1cc(NC(=S)SCc2ccc3c(c2)OCO3)ccc1Cl", "%", 73.5),
    ("Cc1ccc(-c2c(C#N)c(O)n(NS(=O)(=O)c3ccccc3)c(=O)c2C#N)cc1", "%", 4.45),
    ("O=C(Nc1cccc2ccccc12)c1ccc(Cl)cc1Cl", "%", 4.15),
    ("CCOC(=O)COc1ccc(OC)c2c1C(=O)CCC2", "%", 21.1),
    ("Cc1ccc(S(=O)(=O)OC2C(OCc3ccccc3)OC(CO)C2O)cc1 (stereo not given)", "%", -6),
]
